- measured on: T1, Dimeric fibrinogen-like domain of human Ang-2 conjugated to human IgG1 (human)
- T1 construct: also called Dimeric Human Ang-2FD; Human Ang-2FD-hFc
- test protocol: SPR, antibody captured, room temp
Parameter: T1/2. Scope: all listed entries.
Note: a bare number is incomplete; add the unit.

H2M743N (antibody, V domains shown) VH: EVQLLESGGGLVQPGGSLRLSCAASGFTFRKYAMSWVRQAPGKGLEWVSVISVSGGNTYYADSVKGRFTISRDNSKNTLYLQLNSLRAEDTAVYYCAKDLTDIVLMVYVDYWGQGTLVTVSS VL: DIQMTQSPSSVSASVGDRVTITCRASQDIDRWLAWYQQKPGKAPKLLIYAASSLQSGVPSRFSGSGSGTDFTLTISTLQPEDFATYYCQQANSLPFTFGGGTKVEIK :: 167 min
H1M728N (antibody, V domains shown) VH: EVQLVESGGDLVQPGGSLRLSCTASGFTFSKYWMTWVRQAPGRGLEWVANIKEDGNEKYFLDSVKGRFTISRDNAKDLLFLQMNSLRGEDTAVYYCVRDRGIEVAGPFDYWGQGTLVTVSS VL: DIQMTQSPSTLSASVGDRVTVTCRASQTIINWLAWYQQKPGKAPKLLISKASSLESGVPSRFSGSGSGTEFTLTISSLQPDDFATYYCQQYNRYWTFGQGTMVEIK :: 58.4 min

Quick check: T1/2 of H2M742N (antibody, V domains shown) VH: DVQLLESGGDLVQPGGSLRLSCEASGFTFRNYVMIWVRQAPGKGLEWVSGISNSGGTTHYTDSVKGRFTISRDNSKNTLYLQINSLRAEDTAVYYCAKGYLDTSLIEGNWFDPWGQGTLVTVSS VL: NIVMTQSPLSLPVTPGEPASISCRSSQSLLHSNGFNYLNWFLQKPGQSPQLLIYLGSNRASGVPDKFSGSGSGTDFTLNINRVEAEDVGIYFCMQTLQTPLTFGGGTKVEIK ?
38 min
